tgt: OAT1 (Homo sapiens)
Sequence (Q4U2R8 whole entry): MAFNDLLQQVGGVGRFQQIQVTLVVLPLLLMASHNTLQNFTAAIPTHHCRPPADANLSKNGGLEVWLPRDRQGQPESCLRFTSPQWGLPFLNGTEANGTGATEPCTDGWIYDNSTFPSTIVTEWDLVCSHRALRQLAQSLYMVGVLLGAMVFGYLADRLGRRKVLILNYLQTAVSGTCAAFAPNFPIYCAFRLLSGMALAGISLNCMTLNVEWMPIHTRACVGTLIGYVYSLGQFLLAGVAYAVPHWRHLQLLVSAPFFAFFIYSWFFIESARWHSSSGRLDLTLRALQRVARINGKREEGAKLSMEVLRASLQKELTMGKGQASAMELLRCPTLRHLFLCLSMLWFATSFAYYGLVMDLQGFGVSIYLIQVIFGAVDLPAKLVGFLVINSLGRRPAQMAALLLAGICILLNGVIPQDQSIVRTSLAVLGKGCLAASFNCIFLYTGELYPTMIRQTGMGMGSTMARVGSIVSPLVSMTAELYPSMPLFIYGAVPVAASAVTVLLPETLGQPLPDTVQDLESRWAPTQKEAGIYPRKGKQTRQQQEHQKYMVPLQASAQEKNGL
protocol-notes: in vitro
measurement-conditions: human, pH 7.4
reported-metric: inhibition at 2 min, 30 µM
Please answer using the number first and the unit second.

Ask | Consider the compound shown here: C[C@H](Nc1ncnc(N)c1C#N)c1cc2ncc(Cl)n2nc1-c1ccccc1 [Amdizalisib] What is its recorded inhibition at 2 min, 30 µM?
Reply | 92.5%

----------
protocol-notes: Single-dose PK in cynomolgus monkeys (IV/PO)
Format: in vivo, cynomolgus monkey
measurement-conditions: both sexes, cynomolgus monkey, in vivo, iv, 1 mg/kg
reported-metric: AUC(0-inf) (ng·h/mL)
One number for each entry, in ng·h/mL.

Ask | Consider the compound shown here: C[C@H](Nc1ncnc(N)c1C#N)c1cc2ncc(Cl)n2nc1-c1ccccc1 What is its recorded AUC(0-inf)?
Reply | 1520

----------
tgt: UniProt:P10635
Sequence (P10635 whole entry): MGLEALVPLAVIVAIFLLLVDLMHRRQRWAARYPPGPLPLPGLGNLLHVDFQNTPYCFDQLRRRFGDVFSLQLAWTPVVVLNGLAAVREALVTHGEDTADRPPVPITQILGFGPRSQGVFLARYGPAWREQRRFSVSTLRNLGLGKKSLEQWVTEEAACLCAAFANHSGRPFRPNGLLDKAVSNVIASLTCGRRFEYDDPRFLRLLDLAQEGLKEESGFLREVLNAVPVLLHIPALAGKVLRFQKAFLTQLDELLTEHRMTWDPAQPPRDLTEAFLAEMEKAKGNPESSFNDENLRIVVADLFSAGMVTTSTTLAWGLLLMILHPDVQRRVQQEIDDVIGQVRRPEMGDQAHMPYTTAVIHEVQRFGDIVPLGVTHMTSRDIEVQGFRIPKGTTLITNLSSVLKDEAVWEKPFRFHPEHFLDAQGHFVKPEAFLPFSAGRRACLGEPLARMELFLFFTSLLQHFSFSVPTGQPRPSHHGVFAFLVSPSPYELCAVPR
reported-metric: IC50

Ask | Consider the compound shown here: C[C@H](Nc1ncnc(N)c1C#N)c1cc2ncc(Cl)n2nc1-c1ccccc1 What is its recorded IC50?
Reply | > 50 µM

----------
protocol-notes: Single-dose PK and food effect in beagle dogs (IV/PO)
Set-up: species or system beagle dog
measurement-conditions: both sexes, beagle, dog, in vivo, po, 25 mg/kg, Beagle dog, fasted, PO 25 mg/kg; read-out: MRT
reported-metric: MRT (h)
Give bare numbers, in h.

Ask | Consider the compound shown here: C[C@H](Nc1ncnc(N)c1C#N)c1cc2ncc(Cl)n2nc1-c1ccccc1 [Amdizalisib] What is its recorded MRT?
Reply | 31.8

----------
tgt: MATE2-K (Homo sapiens)
Sequence (Q86VL8 1-566 isoform Q86VL8-3): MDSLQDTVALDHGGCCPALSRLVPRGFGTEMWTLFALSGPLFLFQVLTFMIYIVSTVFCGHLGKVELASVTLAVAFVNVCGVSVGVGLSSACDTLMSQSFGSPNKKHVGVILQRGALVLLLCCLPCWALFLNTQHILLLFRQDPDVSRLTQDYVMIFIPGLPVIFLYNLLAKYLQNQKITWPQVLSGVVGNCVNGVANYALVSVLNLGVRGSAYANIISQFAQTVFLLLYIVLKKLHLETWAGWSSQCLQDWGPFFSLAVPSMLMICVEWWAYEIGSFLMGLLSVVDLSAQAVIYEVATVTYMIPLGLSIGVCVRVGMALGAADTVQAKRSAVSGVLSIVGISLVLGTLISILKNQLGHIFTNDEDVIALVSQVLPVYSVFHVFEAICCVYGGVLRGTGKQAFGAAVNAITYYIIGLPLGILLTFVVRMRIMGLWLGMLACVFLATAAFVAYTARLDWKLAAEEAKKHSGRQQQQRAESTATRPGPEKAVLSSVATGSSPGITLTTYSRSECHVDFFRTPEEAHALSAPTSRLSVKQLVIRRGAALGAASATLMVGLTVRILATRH
protocol-notes: in vitro
measurement-conditions: human, pH 8
reported-metric: inhibition at 2 min, 100 µM

Ask | Consider the compound shown here: C[C@H](Nc1ncnc(N)c1C#N)c1cc2ncc(Cl)n2nc1-c1ccccc1 What is its recorded inhibition at 2 min, 100 µM?
Reply | 70.4%

----------
protocol-notes: Metabolic stability in dog liver microsomes
Type: in vitro ADME
measurement-conditions: FMO-deactivated liver microsomes, pH 7.4; male dog liver microsomes, FMO deactivation; read-out: Predicted CL int, iv vivo
reported-metric: CLint scaled at 1 µM (mL/min/kg)
Numbers only, in mL/min/kg.

Ask | Consider the compound shown here: C[C@H](Nc1ncnc(N)c1C#N)c1cc2ncc(Cl)n2nc1-c1ccccc1 [Amdizalisib] What is its recorded CLint scaled at 1 µM?
Reply | 19.9

----------
protocol-notes: Metabolic stability in rat liver microsomes
Assay type: in vitro ADME
measurement-conditions: pH 7.4; male rat liver microsomes, FMO deactivation; read-out: in vitro t1/2
reported-metric: half-life at 1 µM (min)
One number for each entry, in min.

Ask | Consider the molecule shown here: C[C@H](Nc1ncnc(N)c1C#N)c1cc2ncc(Cl)n2nc1-c1ccccc1 [Amdizalisib] What is its recorded half-life at 1 µM?
Reply | 41.7

----------
tgt: MATE2-K (Homo sapiens)
protocol-notes: in vitro
measurement-conditions: human, pH 8
reported-metric: inhibition at 2 min, 1 µM
Please answer using the number first and the unit second.

- compound: "CCc1nc(N)nc(N)c1-c1ccc(Cl)cc1 [Pyrimethamine, reference compound]"
  reported-metric: "inhibition at 2 min, 1 µM"
  result: "100%"

Ask | Consider the compound shown here: C[C@H](Nc1ncnc(N)c1C#N)c1cc2ncc(Cl)n2nc1-c1ccccc1 What is its recorded inhibition at 2 min, 1 µM?
Reply | 10.1%

----------
protocol-notes: Caco-2 bidirectional transport permeability
Type: in vitro ADME, human
measurement-conditions: human
reported-metric: Papp B→A at 60 min, 5 µM
Please answer using the number first and the unit second.

Ask | Consider the compound shown here: C[C@H](Nc1ncnc(N)c1C#N)c1cc2ncc(Cl)n2nc1-c1ccccc1 [Amdizalisib] What is its recorded Papp B→A at 60 min, 5 µM?
Reply | 50.4 ×10⁻⁶ cm/s
